# assay.name: Concentration ratio of beta-2 (EC50) to beta3 (EC50)
# Type: functional
quantity: Selectivity
Write the number on its own, no unit after it.

Ask: Look up Selectivity of C[C@H](NCCc1ccc(NCC(=O)O)c(Cl)c1Cl)[C@H](O)c1ccc(O)cc1 and report it.
Result: 3.7

Ask: Look up Selectivity of C[C@H](NCCc1ccc(NC(C)(C)C(=O)O)cc1Cl)[C@H](O)c1ccc(O)cc1 and report it.
Result: 250

Ask: Look up Selectivity of C[C@H](NCCc1ccc(NCC(=O)O)cc1)[C@H](O)c1ccc(O)cc1 and report it.
Result: 27

Ask: Look up Selectivity of C[C@H](NCCc1ccc(NCC(=O)O)c(Br)c1)[C@H](O)c1ccc(O)cc1 and report it.
Result: 2.5

Ask: Look up Selectivity of C[C@H](NCCc1cc(Cl)c(NCC(=O)O)cc1Cl)[C@H](O)c1ccc(O)cc1 and report it.
Result: 21

* * *

# tested.target: Beta-2 adrenergic receptor (Rattus norvegicus)
# Sequence (P10608 whole entry): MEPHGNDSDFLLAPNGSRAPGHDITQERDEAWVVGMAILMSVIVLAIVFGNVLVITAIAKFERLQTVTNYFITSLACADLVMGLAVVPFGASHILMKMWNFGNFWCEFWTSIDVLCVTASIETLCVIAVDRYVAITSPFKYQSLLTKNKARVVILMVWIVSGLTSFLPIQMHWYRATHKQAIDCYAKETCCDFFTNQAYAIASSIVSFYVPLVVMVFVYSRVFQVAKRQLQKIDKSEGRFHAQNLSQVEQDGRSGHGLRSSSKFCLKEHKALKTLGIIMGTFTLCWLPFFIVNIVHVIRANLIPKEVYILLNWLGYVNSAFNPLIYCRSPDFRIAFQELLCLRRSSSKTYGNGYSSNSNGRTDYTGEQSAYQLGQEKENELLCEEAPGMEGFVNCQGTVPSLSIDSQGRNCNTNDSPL
# assay.name: Agonistic activity towards beta-2 adrenoceptor. Mean concentration required to produce 50% inhibition of uterine contraction
quantity: IC50 (nM)
Give your result in nM as a bare value.

// below: answered compounds
>  <structure.string>
C[C@H](NCCc1ccc(N(CC(=O)O)Cc2ccccc2)cc1)[C@H](O)c1ccc(O)cc1

>  <IC50, nM>
251

$$$$
>  <structure.string>
C[C@H](NCCc1ccc(NCC(=O)O)c(Cl)c1)[C@H](O)c1ccc(O)cc1

>  <IC50, nM>
3310

$$$$
>  <structure.string>
C[C@H](NCCc1ccc(N(C)CC(=O)O)cc1)[C@H](O)c1ccc(O)cc1

>  <IC50, nM>
1580

$$$$

Ask: Look up IC50 of C[C@H](Cc1ccc(OCC(=O)O)cc1)NC[C@H](O)c1cccc(Cl)c1 and report it.
Result: 9.12

Ask: Look up IC50 of C[C@H](NCCc1ccc(NCC(=O)O)c(Br)c1)[C@H](O)c1ccc(O)cc1 and report it.
Result: 1410

* * *

# assay.name: Concentration ratio of beta-2 (EC50) to beta3 (EC50)
# Type: functional
quantity: Selectivity
Write the number on its own, no unit after it.

// below: answered molecules
>  <structure.string>
C[C@H](NCCc1cc(Br)c(NCC(=O)O)c(Br)c1)[C@H](O)c1ccc(O)cc1

>  <recorded.measurement>
32

$$$$
>  <structure.string>
C[C@H](NCCc1ccc(NCC(=O)O)cc1Cl)[C@H](O)c1ccc(O)cc1

>  <recorded.measurement>
8.6

$$$$
>  <structure.string>
C[C@H](NCCc1ccc(N(C)CC(=O)O)cc1)[C@H](O)c1ccc(O)cc1

>  <recorded.measurement>
31

$$$$
>  <structure.string>
C[C@H](NCCc1ccc(NCC(=O)O)c(I)c1)[C@H](O)c1ccc(O)cc1

>  <recorded.measurement>
2.7

$$$$

Ask: Look up Selectivity of C[C@H](NCCc1cc(Cl)c(NCC(=O)O)c(Cl)c1)[C@H](O)c1ccc(O)cc1 and report it.
Result: 1000
